FYI, the data here is from ChEMBL document CHEMBL4665692.

Parameter: log10 MIC. Scope: all listed entries.
Tested on: Cryptococcus neoformans
Experiment: Antifungal activity against Cryptococcus neoformans after 48 hrs by CLSI protocol based broth microdilution assay
Format: functional
Hi team, quick reminder: these entries are log10 of MIC (µM).

# annotated cases, reported log10 MIC shown
CCCC/C=C/Cc1c(C)c(=O)c2ccccc2n1O ... 1.70
CCCCC/C=C/Cc1[nH]c2ccccc2c(=O)c1C ... 0.19
CCCCCC/C=C/Cc1[nH]c2ccccc2c(=O)c1C ... 0.19
CCCC/C=C/Cc1[nH]c2ccccc2c(=O)c1C ... 0.50
CCCCC/C=C/Cc1c(C)c(=O)c2ccccc2n1O ... 1.10

// next entry
What log10 MIC value was documented for this compound, CCCCCC/C=C/Cc1c(C)c(=O)c2ccccc2n1O ? 0.80

----------
System: Streptococcus agalactiae
Test: Antibacterial activity against Streptococcus agalactiae after 48 hrs by CLSI protocol based broth microdilution assay
Assay type: functional
Readout Type: MIC (µM)
Return type: number; implicit unit µM.

# annotated cases, reported MIC shown
CCCCCC/C=C/Cc1c(C)c(=O)c2ccccc2n1O ... 1.56
CCCC/C=C/Cc1[nH]c2ccccc2c(=O)c1C ... 1.56

// next entry
Any idea what MIC came out for CCCCC/C=C/Cc1[nH]c2ccccc2c(=O)c1C on Streptococcus agalactiae? 1.56

----------
Test system: Fusarium oxysporum
Experiment: Antifungal activity against Fusarium oxysporum after 48 hrs by CLSI protocol based broth microdilution assay
Assay type: functional
Readout Type: MIC

What MIC value was documented for this compound, CCCCCC/C=C/Cc1c(C)c(=O)c2ccccc2n1O ? > 100 µM

What MIC value was documented for this compound, CCCC/C=C/Cc1c(C)c(=O)c2ccccc2n1O ? > 100 µM

What MIC value was documented for this compound, CCCCC/C=C/Cc1[nH]c2ccccc2c(=O)c1C ? > 100 µM

What MIC value was documented for this compound, CCCCCC/C=C/Cc1[nH]c2ccccc2c(=O)c1C ? 12.5 µM

What MIC value was documented for this compound, CCCC/C=C/Cc1[nH]c2ccccc2c(=O)c1C ? 12.5 µM

What MIC value was documented for this compound, CCCCC/C=C/Cc1c(C)c(=O)c2ccccc2n1O ? > 100 µM

----------
Parameter: MIC. Scope: all listed entries.
Assay: Antibacterial activity against Paenibacillus peoriae after 48 hrs by CLSI protocol based broth microdilution assay
Assay type: functional
Report the figure along with its unit, number first.

# annotated cases, reported MIC shown
CCCCCC/C=C/Cc1c(C)c(=O)c2ccccc2n1O ... 1.56 µM
CCCC/C=C/Cc1[nH]c2ccccc2c(=O)c1C ... 12.5 µM

What MIC value was documented for this compound, CCCCC/C=C/Cc1c(C)c(=O)c2ccccc2n1O ? 1.56 µM

What MIC value was documented for this compound, CCCCCC/C=C/Cc1[nH]c2ccccc2c(=O)c1C ? 12.5 µM

What MIC value was documented for this compound, CCCC/C=C/Cc1c(C)c(=O)c2ccccc2n1O ? 1.56 µM

What MIC value was documented for this compound, CCCCC/C=C/Cc1[nH]c2ccccc2c(=O)c1C ? 12.5 µM

----------
Tested on: Actinobacillus pleuropneumoniae
Test: Antibacterial activity against Actinobacillus pleuropneumoniae after 48 hrs by CLSI protocol based broth microdilution assay
Format: functional
Readout Type: MIC (µM)
Return type: number; implicit unit µM.

# annotated cases, reported MIC shown
CCCCC/C=C/Cc1c(C)c(=O)c2ccccc2n1O ... 1.56
CCCCCC/C=C/Cc1[nH]c2ccccc2c(=O)c1C ... 1.56
CCCC/C=C/Cc1c(C)c(=O)c2ccccc2n1O ... 1.56
CCCCC/C=C/Cc1[nH]c2ccccc2c(=O)c1C ... 1.56
CCCC/C=C/Cc1[nH]c2ccccc2c(=O)c1C ... 3.13

// next entry
Any idea what MIC came out for CCCCCC/C=C/Cc1c(C)c(=O)c2ccccc2n1O on Actinobacillus pleuropneumoniae? 1.56

----------
Parameter: MIC. Scope: all listed entries.
Tested on: Streptococcus agalactiae
Test: Antibacterial activity against Streptococcus agalactiae after 48 hrs by CLSI protocol based broth microdilution assay
Type: functional
Return type: number; implicit unit µM.

CCCCC/C=C/Cc1c(C)c(=O)c2ccccc2n1O ... 1.56

What MIC value was documented for this molecule, CCCCCC/C=C/Cc1[nH]c2ccccc2c(=O)c1C ? 1.56

What MIC value was documented for this molecule, CCCC/C=C/Cc1c(C)c(=O)c2ccccc2n1O ? 1.56
